The following compounds are shown together with reported XC50 values.
System: Plasmodium falciparum
Experiment: GSK_TCMDC: Inhibition of Plasmodium falciparum 3D7 in whole erythrocytes, using parasite LDH activity as an index of growth.
Assay type: functional, organism-based
Details: Plasmodium falciparum, 3D7
Numeric answer only, unit nM assumed.

Solved cases below.
• O=C(/C=C/c1ccc(Cl)c(Cl)c1)N1CCC(CN2CCC(c3c[nH]c4cc5c(cc34)OCO5)CC2)CC1 = 680
• O=c1cc(NCCCNCc2cccc(I)c2)[nH]c2ccccc12 = 1020
• CC(C)CNCc1ccc(-c2cccc(CN(CCN(C)C)C(=O)NCCc3ccccc3)c2)cc1 = 1060
• FC(F)(F)c1ccc2[nH]c(-c3ccc(-c4ccc(CN5CCN(c6cnccn6)CC5)cc4)cc3)nc2c1 = 687
• O=C(Nc1ccccc1O)c1ccc(Oc2cccc(C(=O)Nc3ccccc3O)c2)cc1 = 799
• O=S(=O)(Nc1ccc2nccc(N3CCNCC3)c2c1)c1ccc2oc3ccccc3c2c1 = 695

Enter reported XC50 observed with Plasmodium falciparum for Cc1nc2ccccc2n1C1CC2CCC(C1)N2CCCC1(c2ccccc2)CCN(C(=O)OCc2ccccc2)CC1 (centres undefined)
998

Enter reported XC50 observed with Plasmodium falciparum for Cc1cccc(-c2nc(Nc3ccncc3)c3cc(N(C)C)ccc3n2)n1
710

Enter reported XC50 observed with Plasmodium falciparum for CNC(=O)Cc1ccc(C(=O)Nc2cccc(-c3csc(-c4nc5ccccc5[nH]4)c3)c2)cc1
273

====

System: Plasmodium falciparum
Experiment: GSK_TCMDC: Inhibition of Plasmodium falciparum 3D7 in whole erythrocytes, using parasite LDH activity as an index of growth.
Assay type: functional, organism-based
Conditions: Plasmodium falciparum, 3D7
Each entry falls into one class according to its XC50; the ranges are interval 1 (below 600 nM), interval 2 (600 nM to below 900 nM), interval 3 (900 nM or more)

- CC[C@H](C)CNC(=O)c1cccc(-c2cccc(CN3CCC(N4CCCC4)CC3)c2)n1: interval 2
- COc1ccc2c(NN=Cc3ccccc3)ccnc2c1: interval 1
- O=C(/C=C/c1ccc(Cl)c(Cl)c1)NCCCCCN1CCC(CCCNC(=O)Nc2ccc(C(F)(F)F)cc2)CC1: interval 2
- O=C(CSc1nnc(-c2ccccc2Br)[nH]1)c1c[nH]c2ccccc12: interval 3
- O=C(Nc1ccc(Cl)cc1)Nc1ccc(Cn2ncc(N3CCCNCC3)c(Cl)c2=O)cc1: interval 2

As a next step, examine the compound that follows.
Where would O=C(Nc1ccc(-c2nc3ccccc3[nH]2)cc1)c1ccc(N2CCCC2)c([N+](=O)[O-])c1 land among the classes by reported XC50?
interval 2

====

The following compounds are shown together with reported log10 XC50 values.
Test system: Plasmodium falciparum
Assay: GSK_TCMDC: Inhibition of Plasmodium falciparum 3D7 in whole erythrocytes, using parasite LDH activity as an index of growth.
Type: functional, organism-based
Conditions: Plasmodium falciparum, 3D7
Plainly stated, the numbers are log10 of XC50 given in nM.

Solved cases below.
• Cn1c(N)cc(-c2ccc(Br)cc2)c2c(=O)nc(N)nc1-2 = 3.05
• COc1ccc2nccc([C@@H](O)CN3CCC(NCc4cc5c(F)ccc(F)c5[nH]4)CC3)c2c1 = 2.16
• Cc1cc(N2CCN(CC3CCN(C)CC3)CC2)nc(Nc2ccc(Cl)cc2)n1 = 2.84
• O=C(NC1CCN(Cc2ccccc2)C1)c1ccc(Nc2ccc(Br)cc2)nc1 (stereo not given) = 3.03

I am curious: what log10 XC50 value has been reported for CCc1cn2c3c(cc(C(=O)N[C@@H](Cc4cccc(F)c4)[C@H](O)CNC4CCOCC4)cc13)N(C)S(=O)(=O)CC2 ?
1.83

I am curious: what log10 XC50 value has been reported for Cc1cccc2[nH]cc(C3CCN(CC4CCC(NC(=O)/C=C/c5ccc(Cl)c(Cl)c5)CC4)CC3)c12 (stereo not given) ?
2.21

I am curious: what log10 XC50 value has been reported for Cc1cccc(NC(=O)c2cnc(N3CCN(c4ccncc4)CC3)c(Cl)c2)c1 ?
2.83

I am curious: what log10 XC50 value has been reported for CCOc1cc(C(=O)NCCN(CC)c2cccc(C)c2)ccc1-c1nc2cc(Cl)ccc2[nH]1 ?
2.91

I am curious: what log10 XC50 value has been reported for Nc1ncc(-c2ccccc2)cc1-c1nc2cc(Cl)c(F)cc2[nH]1 ?
2.42

I am curious: what log10 XC50 value has been reported for Cc1ccc(-c2nc(N3CCN(C(=O)c4ccco4)CC3)c3ccc(Cl)cc3n2)cc1 ?
3.08
